Test system: HeLa Kyoto
Experiment: thermal stability score vs G1/S (z-score of summed log2 fold changes over temperatures); higher = more thermally stable than in G1/S
Settings: cell cycle stage: mitosis
Test readout: thermal stability score
I'd appreciate a reply containing only the number, no unit.

[[record]]
sequence_text = "MTQQPLRGVTSLRFNQDQSCFCCAMETGVRIYNVEPLMEKGHLDHEQVGSMGLVEMLHRSNLLALVGGGSSPKFSEISVLIWDDAREGKDSKEKLVLEFTFTKPVLSVRMRHDKIVIVLKNRIYVYSFPDNPRKLFEFDTRDNPKGLCDLCPSLEKQLLVFPGHKCGSLQLVDLASTKPGTSSAPFTINAHQSDIACVSLNQPGTVVASASQKGTLIRLFDTQSKEKLVELRRGTDPATLYCINFSHDSSFLCASSDKGTVHIFALKDTRLNRRSALARVGKVGPMIGQYVDSQWSLASFTVPAESACICAFGRNTSKNVNSVIAICVDGTFHKYVFTPDGNCNREAFDVYLDICDDDDF [WDR45]"
test_readout = "thermal stability score"
value = -0.704

[[record]]
sequence_text = "MAQRGGARRPRGDRERLGSRLRALRPGREPRQSEPPAQRGPPPSGRPPARSTASGHDRPTRGAAAGARRPRMKKKTRRRSTRSEELTRSEELTLSEEATWSEEATQSEEATQGEEMNRSQEVTRDEESTRSEEVTREEMAAAGLTVTVTHSNEKHDLHVTSQQGSSEPVVQDLAQVVEEVIGVPQSFQKLIFKGKSLKEMETPLSALGIQDGCRVMLIGKKNSPQEEVELKKLKHLEKSVEKIADQLEELNKELTGIQQGFLPKDLQAEALCKLDRRVKATIEQFMKILEEIDTLILPENFKDSRLKRKGLVKKVQAFLAECDTVEQNICQETERLQSTNFALAE [BAG1]"
test_readout = "thermal stability score"
value = -2.14


Exercise: Give its thermal stability score value. Item: MAACRALKAVLVDLSGTLHIEDAAVPGAQEALKRLRGASVIIRFVTNTTKESKQDLLERLRKLEFDISEDEIFTSLTAARSLLERKQVRPMLLVDDRALPDFKGIQTSDPNAVVMGLAPEHFHYQILNQAFRLLLDGAPLIAIHKARYYKRKDGLALGPGPFVTALEYATDTKATVVGKPEKTFFLEALRGTGCEPEEAVMIGDDCRDDVGGAQDVGMLGILVKTGKYRASDEEKINPPPYLTCESFPHAVDHILQHLL [HDHD2]
Solution: -2.57

----------
System: HeLa Kyoto
Test: solubility change mitosis vs G1/S (difference of NP-40 vs SDS log2 ratios) (log2 ratio difference); higher = more soluble in mitosis
# key: entry, value: solubility change mitosis (log2)
I'd appreciate a reply containing only the number, no unit.

Worked cases, answers included:
[[record]]
sequence_text = "MTTAARPTFEPARGGRGKGEGDLSQLSKQYSSRDLPSHTKIKYRQTTQDAPEEVRNRDFRRELEERERAAAREKNRDRPTREHTTSSSVSKKPRLDQIPAANLDADDPLTDEEDEDFEEESDDDDTAALLAELEKIKKERAEEQARKEQEQKAEEERIRMENILSGNPLLNLTGPSQPQANFKVKRRWDDDVVFKNCAKGVDDQKKDKRFVNDTLRSEFHKKFMEKYIK [CWC15]"
test_readout = "solubility change mitosis (log2)"
value = 0.681

[[record]]
sequence_text = "MAAEPLTELEESIETVVTTFFTFARQEGRKDSLSVNEFKELVTQQLPHLLKDVGSLDEKMKSLDVNQDSELKFNEYWRLIGELAKEIRKKKDLKIRKK [S100A13]"
test_readout = "solubility change mitosis (log2)"
value = 0.294

[[record]]
sequence_text = "MPEEGSGCSVRRRPYGCVLRAALVPLVAGLVICLVVCIQRFAQAQQQLPLESLGWDVAELQLNHTGPQQDPRLYWQGGPALGRSFLHGPELDKGQLRIHRDGIYMVHIQVTLAICSSTTASRHHPTTLAVGICSPASRSISLLRLSFHQGCTIASQRLTPLARGDTLCTNLTGTLLPSRNTDETFFGVQWVRP [CD70]"
test_readout = "solubility change mitosis (log2)"
value = -0.0934


Exercise: State its solubility change mitosis (log2) on HeLa Kyoto: MARLWGALSLWPLWAAVPWGGAAAVGVRACSSTAAPDGVEGPALRRSYWRHLRRLVLGPPEPPFSHVCQVGDPVLRGVAAPVERAQLGGPELQRLTQRLVQVMRRRRCVGLSAPQLGVPRQVLALELPEALCRECPPRQRALRQMEPFPLRVFVNPSLRVLDSRLVTFPEGCESVAGFLACVPRFQAVQISGLDPNGEQVVWQASGWAARIIQHEMDHLQGCLFIDKMDSRTFTNVYWMKVND [PDF]
Solution: -0.136

Exercise: State its solubility change mitosis (log2) on HeLa Kyoto: MNPNCARCGKIVYPTEKVNCLDKFWHKACFHCETCKMTLNMKNYKGYEKKPYCNAHYPKQSFTMVADTPENLRLKQQSELQSQVRYKEEFEKNKGKGFSVVADTPELQRIKKTQDQISNIKYHEEFEKSRMGPSGGEGMEPERRDSQDGSSYRRPLEQQQPHHIPTSAPVYQQPQQQPVAQSYGGYKEPAAPVSIQRSAPGGGGKRYRAVYDYSAADEDEVSFQDGDTIVNVQQIDDGWMYGTVERTGDTGMLPANYVEAI [LASP1]
Solution: 0.0867

Exercise: State its solubility change mitosis (log2) on HeLa Kyoto: MRGKTFRFEMQRDLVSFPLSPAVRVKLVSAGFQTAEELLEVKPSELSKEVGISKAEALETLQIIRRECLTNKPRYAGTSESHKKCTALELLEQEHTQGFIITFCSALDDILGGGVPLMKTTEICGAPGVGKTQLCMQLAVDVQIPECFGGVAGEAVFIDTEGSFMVDRVVDLATACIQHLQLIAEKHKGEEHRKALEDFTLDNILSHIYYFRCRDYTELLAQVYLLPDFLSEHSKVRLVIVDGIAFPFRHDLDDLSLRTRLLNGLAQQMISLANNHRLAVILTNQMTTKIDRNQALLVPALGESWGHAATIRLIFHWDRKQRLATLYKSPSQKECTVLFQIKPQGFRDTVVTSACSLQTEGSLSTRKRSRDPEEEL [RAD51C]
Solution: 0.0331

Exercise: State its solubility change mitosis (log2) on HeLa Kyoto: MSMEDPFFVVKGEVQKAVNTAQGLFQRWTELLQDPSTATREEIDWTTNELRNNLRSIEWDLEDLDETISIVEANPRKFNLDATELSIRKAFITSTRQVVRDMKDQMSTSSVQALAERKNRQALLGDSGSQNWSTGTTDKYGRLDRELQRANSHFIEEQQAQQQLIVEQQDEQLELVSGSIGVLKNMSQRIGGELEEQAVMLEDFSHELESTQSRLDNVMKKLAKVSHMTSDRRQWCAIAILFAVLLVVLILFLVL [STX6]
Solution: -0.118

Exercise: State its solubility change mitosis (log2) on HeLa Kyoto: MTDGDYDYLIKLLALGDSGVGKTTFLYRYTDNKFNPKFITTVGIDFREKRVVYNAQGPNGSSGKAFKVHLQLWDTAGQERFRSLTTAFFRDAMGFLLMFDLTSQQSFLNVRNWMSQLQANAYCENPDIVLIGNKADLPDQREVNERQARELADKYGIPYFETSAATGQNVEKAVETLLDLIMKRMEQCVEKTQIPDTVNGGNSGNLDGEKPPEKKCIC [RAB27B]
Solution: -0.0223

Exercise: State its solubility change mitosis (log2) on HeLa Kyoto: MGNIFGNLLKSLIGKKEMRILMVGLDAAGKTTILYKLKLGEIVTTIPTIGFNVETVEYKNISFTVWDVGGQDKIRPLWRHYFQNTQGLIFVVDSNDRERVNEAREELMRMLAEDELRDAVLLVFANKQDLPNAMNAAEITDKLGLHSLRHRNWYIQATCATSGDGLYEGLDWLANQLKNKK [ARF3]
Solution: -0.299

Exercise: State its solubility change mitosis (log2) on HeLa Kyoto: MAAPGSCALWSYCGRGWSRAMRGCQLLGLRSSWPGDLLSARLLSQEKRAAETHFGFETVSEEEKGGKVYQVFESVAKKYDVMNDMMSLGIHRVWKDLLLWKMHPLPGTQLLDVAGGTGDIAFRFLNYVQSQHQRKQKRQLRAQQNLSWEEIAKEYQNEEDSLGGSRVVVCDINKEMLKVGKQKALAQGYRAGLAWVLGDAEELPFDDDKFDIYTIAFGIRNVTHIDQALQEAHRVLKPGGRFLCLEFSQVNNPLISRLYDLYSFQVIPVLGEVIAGDWKSYQYLVESIRRFPSQEEFKDMIEDAGFHKVTYESLTSGIVAIHSGFKL [COQ5]
Solution: 0.0212

Exercise: State its solubility change mitosis (log2) on HeLa Kyoto: MSVDPMTYEAQFFGFTPQTCMLRIYIAFQDYLFEVMQAVEQVILKKLDGIPDCDISPVQIRKCTEKFLCFMKGHFDNLFSKMEQLFLQLILRIPSNILLPEDKCKETPYSEEDFQHLQKEIEQLQEKYKTELCTKQALLAELEEQKIVQAKLKQTLTFFDELHNVGRDHGTSDFRESLVSLVQNSRKLQNIRDNVEKESKRLKIS [MIS12]
Solution: 0.259

Exercise: State its solubility change mitosis (log2) on HeLa Kyoto: MAARRGALIVLEGVDRAGKSTQSRKLVEALCAAGHRAELLRFPERSTEIGKLLSSYLQKKSDVEDHSVHLLFSANRWEQVPLIKEKLSQGVTLVVDRYAFSGVAFTGAKENFSLDWCKQPDVGLPKPDLVLFLQLQLADAAKRGAFGHERYENGAFQERALRCFHQLMKDTTLNWKMVDASKSIEAVHEDIRVLSEDAIRTATEKPLGELWK [DTYMK]
Solution: 0.00796
